- Study target: human EP2 (PTGER2) (Homo sapiens, UniProt P43116)
- Construct: Cayman Chemical (Human EP2 Reporter Assay Kit)
- Sequence (P43116 whole entry): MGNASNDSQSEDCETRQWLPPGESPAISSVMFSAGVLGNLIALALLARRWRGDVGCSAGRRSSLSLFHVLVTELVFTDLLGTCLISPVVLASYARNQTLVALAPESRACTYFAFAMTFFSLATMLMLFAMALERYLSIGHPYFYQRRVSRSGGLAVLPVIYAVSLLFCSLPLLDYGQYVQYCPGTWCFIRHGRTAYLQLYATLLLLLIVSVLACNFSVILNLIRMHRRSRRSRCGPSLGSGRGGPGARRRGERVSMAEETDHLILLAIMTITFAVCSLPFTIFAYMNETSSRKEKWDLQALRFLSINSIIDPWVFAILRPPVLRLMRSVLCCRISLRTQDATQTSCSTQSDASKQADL
- Assay remarks: EP2 antagonist assay (HEK-293 CNG membrane potential cAMP assay / 293T SEAP reporter assay, PGE2-stimulated)
- Test parameters: EP2 antagonist activity; concentration for 50% inhibition of signal compared to DMSO
pIC50: −log10 of the molar value.
Reported values of pIC50 for individual entries

Examples with answers:
> print(dat)
                                test.smiles                              study.target  reported.property  observed.result
1  O=C(O)c1ccc(C2(NC(=O)c3ccc(Nc4cccc(F)c4)c4ccn(Cc5ccc(C(F)(F)F)cc5)c34)CC2)cc1  human EP2 (PTGER2) (Homo sapiens, UniProt P43116)              pIC50           > 7.00
2  C[C@H](NC(=O)c1cc(-c2ccc(F)cc2)cc2cnn(Cc3ccc(-c4ccc(F)cc4)cc3)c12)c1ccc(C(=O)O)cc1  human EP2 (PTGER2) (Homo sapiens, UniProt P43116)              pIC50           > 7.00
3  C[C@H](NC(=O)c1cc(-c2ccccc2)cc2cnn(Cc3ccc(C(F)(F)F)cc3)c12)c1ccc(C(=O)O)cc1  human EP2 (PTGER2) (Homo sapiens, UniProt P43116)              pIC50           > 7.00
4  C[C@@H](NC(=O)c1cc(-c2ccc(F)cc2)cc2ccn(Cc3ccc(C(F)(F)F)cc3)c12)c1ccc(C(=O)O)cc1  human EP2 (PTGER2) (Homo sapiens, UniProt P43116)              pIC50           ≤ 6.00
5  O=C(O)c1ccc(C2(NC(=O)c3ccc(Nc4cc(F)cc(F)c4)c4ccn(Cc5ccc(C(F)(F)F)cc5)c34)CC2)cc1  human EP2 (PTGER2) (Homo sapiens, UniProt P43116)              pIC50     6.00 to 7.00

Fill blank: measured pIC50 of the compound `C[C@H](NC(=O)c1cc(-c2cccc(C#N)c2)cc2ccn(Cc3ccc(C(F)(F)F)cc3)c12)c1ccc(C(=O)O)cc1` is ____. > 7.00

Fill blank: measured pIC50 of the compound `O=C(O)c1ccc(CNC(=O)c2cc(-c3ccc(F)c(F)c3)cc3cnn(Cc4ccc(-c5ccc(F)cc5)cc4)c23)cc1` is ____. > 7.00

Fill blank: measured pIC50 of the compound `O=C(O)c1ccc(C2(NC(=O)c3ccc(-c4cc(F)cc(C(F)(F)F)c4)c4ccn(Cc5ccc(C(F)(F)F)cc5)c34)CC2)cc1` is ____. ≤ 6.00

Fill blank: measured pIC50 of the compound `O=C(O)c1ccc(CNC(=O)c2cc(-c3cc(F)cc(C(F)(F)F)c3)cc3ccn(Cc4ccc(C(F)(F)F)cc4)c23)cc1` is ____. > 7.00
